Each recorded value in this set is attributed to patent US20030124585A1.

- TARGET OF ASSAY: Marmoset Type II GnRH-R (Callithrix jacchus, UniProt Q95MG6)
- Construct: Full length marmoset Type II GnRH receptor was produced by PCR; expressed in transfected cells; host or cells: COS-7 cells, transient transfection (Superfect), plasmid pcDNA3.1+
- Sequence (Q95MG6 1-380): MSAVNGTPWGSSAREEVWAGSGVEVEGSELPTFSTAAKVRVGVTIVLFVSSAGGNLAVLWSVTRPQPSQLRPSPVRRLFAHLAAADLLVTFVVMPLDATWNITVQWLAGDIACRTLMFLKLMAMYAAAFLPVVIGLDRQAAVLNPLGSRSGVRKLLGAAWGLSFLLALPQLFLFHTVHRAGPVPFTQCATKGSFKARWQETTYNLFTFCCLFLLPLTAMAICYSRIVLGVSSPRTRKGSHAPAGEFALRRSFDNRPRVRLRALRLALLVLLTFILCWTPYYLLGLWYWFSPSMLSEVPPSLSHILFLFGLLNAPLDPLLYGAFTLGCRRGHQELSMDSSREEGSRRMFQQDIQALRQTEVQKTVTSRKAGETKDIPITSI
- MEASUREMENT PROTOCOL: Total inositol phosphate production in transfected COS-7 cells
- Assay type: cell-based
- TEST SETTINGS: Table 1; s.e.m., n=3-6; read-out: InsP production (EC50) Marmoset Type II
- Procedure: Cell culture and transfection. COS-7 cells were cultured as previously described (20, 21). Transient transfections of COS-7 cells with human Type I GnRH receptor or marmoset Type II GnRH receptor, along with myc-tagged ERK2, JNK and p38α constructs were performed using Superfect (Qiagen) according to the manufacturer's protocol. All assays described were performed 48 h post transfection. Receptor binding and inositol phosphate production.
Square brackets hold non-standard residues; d marks the D form. Peptide text beside a SMILES is read from it. pGlu = O=C1CC[C@@H](C(=O)O)N1
MEASUREMENT LABEL: pEC50
One number for each entry, as −log10 of the molar value.

A selection of reference data follows.
Reported pEC50 ( N=C(N)NCCC[C@@H](NC(=O)[C@H](Cc1c[nH]cn1)NC(=O)[C@H](CO)NC(=O)[C@H](Cc1c[nH]c2ccccc12)NC(=O)[C@H](Cc1c[nH]cn1)NC(=O)[C@@H]1CCC(=O)N1)C(=O)N[C@@H](Cc1c[nH]c2ccccc12)C(=O)N[C@@H](Cc1ccc(O)cc1)C(=O)N1CCC[C@H]1C(=O)NCC(N)=O [[D-Arg^6] GnRH II, [D-Arg^6]GnRH II] ([pGlu]HWSH[dR]WYPG-NH2; C-terminus assumed) ) = 8.62

Reported pEC50 ( CC(C)C[C@H](NC(=O)[C@H](Cc1c[nH]c2ccccc12)NC(=O)CNC(=O)[C@H](Cc1ccc(O)cc1)NC(=O)[C@H](CO)NC(=O)[C@H](Cc1c[nH]c2ccccc12)NC(=O)[C@H](Cc1c[nH]cn1)NC(=O)[C@@H]1CCC(=O)N1)C(=O)N1CCC[C@H]1C(=O)NCC(N)=O [sGnRH, [Trp^7,Leu^8]GnRH I] ([pGlu]HWSYGWLPG-NH2; C-terminus assumed) ) = 8.22

Take each entry in turn and give its pEC50.
1. NC(=O)CNC(=O)[C@@H]1CCCN1C(=O)[C@H](Cc1ccc(O)cc1)NC(=O)[C@H](Cc1c[nH]c2ccccc12)NC(=O)CNC(=O)[C@H](Cc1c[nH]cn1)NC(=O)[C@H](CO)NC(=O)[C@H](Cc1c[nH]c2ccccc12)NC(=O)[C@H](Cc1c[nH]cn1)NC(=O)[C@@H]1CCC(=O)N1 [GnRH II, [His^5,Trp^7,Tyr^8]GnRH I] ([pGlu]HWSHGWYPG-NH2; C-terminus assumed)
2. CC(C)C[C@H](NC(=O)CNC(=O)[C@H](Cc1ccc(O)cc1)NC(=O)[C@H](CO)NC(=O)[C@H](Cc1c[nH]c2ccccc12)NC(=O)[C@H](Cc1c[nH]cn1)NC(=O)[C@@H]1CCC(=O)N1)C(=O)N[C@@H](CCCNC(=N)N)C(=O)N1CCC[C@H]1C(=O)NCC(N)=O

Result block:
1: 9.35; 2: 7.39
